Biological target: human CSE (Homo sapiens)
Sequence (P32929 whole entry): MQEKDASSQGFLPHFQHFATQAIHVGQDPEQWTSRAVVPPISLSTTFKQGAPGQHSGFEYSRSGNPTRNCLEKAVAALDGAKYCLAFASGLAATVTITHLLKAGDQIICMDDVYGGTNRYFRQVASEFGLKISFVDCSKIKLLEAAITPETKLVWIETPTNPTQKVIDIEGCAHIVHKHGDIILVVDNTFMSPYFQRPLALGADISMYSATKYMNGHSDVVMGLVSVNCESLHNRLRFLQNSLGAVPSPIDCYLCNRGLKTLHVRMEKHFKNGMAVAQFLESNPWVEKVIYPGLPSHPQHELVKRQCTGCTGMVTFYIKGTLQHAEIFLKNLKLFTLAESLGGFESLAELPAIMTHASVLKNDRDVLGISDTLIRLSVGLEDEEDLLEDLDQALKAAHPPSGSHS
Assay: H2S production by purified recombinant GST-CSE
Format: biochemical
Details: 1 mM compound
quantity_name: CSE H2S production (% of control)

molecule: C[Se]C[C@H](N)C(=O)O [Methylseleno-cysteine, methylselenocysteine]
CSE H2S production (% of control): 79.7 ± 4.3 % of control

In plain terms, C#CCN(C)Cc1ccccc1 [Pargyline, pargyline] has a documented CSE H2S production (% of control) of 81.7 ± 12.5 % of control

C#CCOc1ccc(N)cc1C(=O)NCCCC [Parsalmide] has a reported CSE H2S production (% of control) of 76.7 ± 11.3 % of control

Kindly note the recorded CSE H2S production (% of control) for N[C@@H]1CON=C1O [D-Cycloserine, D-cycloserine] , which is 73.3 ± 18.6 % of control

====

Target: UniProtKB P32929
Assay: H2S production by purified recombinant GST-CSE
Type: biochemical
Details: 0.1 mM compound
quantity_name: CSE H2S production (% of control)

// CSE H2S production (% of control) value for C[Se]C[C@H](N)C(=O)O : 85.5 ± 4.4 % of control

Recorded CSE H2S production (% of control) (molecule NNC(=O)c1ccncc1 ): 93.3 ± 23.0 % of control

CSE H2S production (% of control) in this record for C#CCN(C)Cc1ccccc1 : 96.7 ± 7.1 % of control

Documented CSE H2S production (% of control) of C#CCOc1ccc(N)cc1C(=O)NCCCC [Parsalmide] : 86.7 ± 17.8 % of control

The reported CSE H2S production (% of control) of the molecule N[C@@H]1CON=C1O was 83.3 ± 19.2 % of control
